biological target: hTA1 (Homo sapiens, UniProt Q96RJ0); construct: expressed in transfected cells; host or cells: HEK293T; test: GloSensor cAMP accumulation assay, concentration response, wild-type hTA1 in transfected HEK293T cells; assay type: cell-based; details: wt hTA1; HEK293T; n=3; read-out: EC50;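 note: luminescence read after 30 min compound exposure at room temperature in cells preloaded with D-Luciferin, reflecting Gs-driven cAMP rise, efficacy scaled to the maximal β-PEA response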
Sequence (Q96RJ0 whole entry): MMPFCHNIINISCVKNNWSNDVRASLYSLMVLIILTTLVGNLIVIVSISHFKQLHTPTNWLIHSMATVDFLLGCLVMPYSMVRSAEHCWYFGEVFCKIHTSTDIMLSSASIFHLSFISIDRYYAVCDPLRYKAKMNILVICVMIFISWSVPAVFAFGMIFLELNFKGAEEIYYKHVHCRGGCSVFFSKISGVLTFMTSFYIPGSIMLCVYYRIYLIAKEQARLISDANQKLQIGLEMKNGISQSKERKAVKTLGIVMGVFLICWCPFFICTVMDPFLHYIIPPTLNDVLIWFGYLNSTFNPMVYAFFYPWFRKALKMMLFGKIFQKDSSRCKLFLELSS
MEASURE: EC50

| MOLECULE | EXPERIMENTAL RESULT |
| --- | --- |
| NCCc1ccc(Oc2ccc(O)cc2)c(I)c1 [T1AM, 3-iodothyronamine] | 0.743 µM |
| NCCc1ccc(O)cc1 [TYR, tyramine] | 0.415 µM |
| CN1CC2c3ccccc3Oc3ccc(Cl)cc3C2C1 (stereo not shown) [asenapine] | 0.274 µM |
| NCCc1ccccc1 [β-PEA, β-phenethylamine] | 0.0806 µM |
